Data origin: PubChem BioAssay AID2060896

Test system: 941728-121-R-J1-PDC complex spheroid viability;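 also: spheroids exposed to compounds for 7 days before readout; 100% = DMSO vehicle control viability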
Test: Anticancer human tumor 941728-121-R-J1-PDC patient-derived lung adenocarcinoma cell line growth inhibition [RAS]
Details: second compound 0.00949 µM; first compound 0.01 µM; active compounds read low
Readings of viability, T/C for the listed compounds
# unit: % | format: bare number

Take a look at these entries with their results.
Compound: C=CC(=O)Nc1cc(Nc2nccc(-c3cn(C)c4ccccc34)n2)c(OC)cc1N(C)CCN(C)C + CCn1c(-c2cccnc2C(C)OC)c2c3cc(ccc31)N1CCOC(CC(NC(=O)C(C(C)C)N(C)C(=O)C3(F)CCN(C(=O)C#CC(C)(C)N(C)C)CC3)C(=O)N3CCCC(N3)C(=O)OCC(C)(C)C2)C1
Numeric result: 18.3

Compound: Nc1ccn(C2OC(CO)C(O)C2(F)F)c(=O)n1 (stereo not drawn) + CCn1c(-c2cccnc2C(C)OC)c2c3cc(ccc31)N1CCOC(CC(NC(=O)C(C(C)C)N(C)C(=O)C3(F)CCN(C(=O)C#CC(C)(C)N(C)C)CC3)C(=O)N3CCCC(N3)C(=O)OCC(C)(C)C2)C1
Numeric result: 15.5

# ---- query compound ----
Using the record for C=CC(=O)Nc1cc(Nc2nccc(-c3cn(C)c4ccccc34)n2)c(OC)cc1N(C)CCN(C)C + CCn1c(-c2cc(N3CCN(C)CC3)cnc2C(C)OC)c2c3cc(ccc31)-c1csc(n1)CC(NC(=O)C1CC1C)C(=O)N1CCCC(N1)C(=O)OCC(C)(C)C2 , report its viability, T/C.
15
